Reference source: paper PMC6151762

Property: melting point

>  <Smiles>
O=C(Nc1ccc(Br)cc1Br)c1ccc2ccccc2c1O

>  <Reading>
185 to 188 °C

$$$$
>  <Smiles>
O=C(Nc1cc(Br)ccc1Br)c1ccc2ccccc2c1O

>  <Reading>
198 to 200 °C

$$$$
>  <Smiles>
O=C(Nc1ccc(Br)c(Cl)c1)c1ccc2ccccc2c1O

>  <Reading>
203 to 205 °C

$$$$
>  <Smiles>
O=C(Nc1cc(Br)ccc1Cl)c1ccc2ccccc2c1O

>  <Reading>
178 to 180 °C

$$$$
>  <Smiles>
O=C(Nc1ccc(Br)cc1Cl)c1ccc2ccccc2c1O

>  <Reading>
186 to 187 °C

$$$$
>  <Smiles>
O=C(Nc1c(Br)cccc1Br)c1ccc2ccccc2c1O

>  <Reading>
212 to 216 °C

$$$$
>  <Smiles>
O=C(Nc1c(Br)cc(Br)cc1Br)c1ccc2ccccc2c1O

>  <Reading>
115 to 118 °C

$$$$
>  <Smiles>
O=C(Nc1ccc(Cl)cc1Br)c1ccc2ccccc2c1O

>  <Reading>
182 to 184 °C

$$$$
